# Test system: Rice
# test: Whole plant screen for plant growth regulator activity, rice (RC)
# Assay type: in vivo, Rice (Ishikari)
# details: 4000 ppm (4 kg/ha), visual score after 2-6 weeks
recorded-metric: G = Greening effect

Please review the entries below; each comes with its answer.
Quote G = Greening effect reported for CCCCCC(O)(c1cncnc1)C(C)C (stereo not drawn) [Compound 3] please.
2 (31-60%)

Quote G = Greening effect reported for CC(C)C#CC(O)(c1cncnc1)C(C)C (stereo not drawn) [Compound 9] please.
1 (10-30%)

Quote G = Greening effect reported for CC(C)C(O)(CCC(C)(C)C)c1cncnc1 (stereo not drawn) [Compound 20] please.
2 (31-60%)

Further cases:
Quote G = Greening effect reported for CC(C)CCC#CC(O)(c1cncnc1)C(C)C (stereo not drawn) [Compound 12] please.
1 (10-30%)

Quote G = Greening effect reported for CCCCC#CC(O)(c1cncnc1)C(C)C (stereo not drawn) [Compound 1] please.
2 (31-60%)

Quote G = Greening effect reported for CCC(C)CCCC(O)(c1cncnc1)C(C)C (stereo not drawn) [Compound 21] please.
1 (10-30%)

Where these numbers come from: patent US4875922A
